- assayedTarget: BCRP (Homo sapiens, UniProt Q9UNQ0)
- Sequence (Q9UNQ0 1-655): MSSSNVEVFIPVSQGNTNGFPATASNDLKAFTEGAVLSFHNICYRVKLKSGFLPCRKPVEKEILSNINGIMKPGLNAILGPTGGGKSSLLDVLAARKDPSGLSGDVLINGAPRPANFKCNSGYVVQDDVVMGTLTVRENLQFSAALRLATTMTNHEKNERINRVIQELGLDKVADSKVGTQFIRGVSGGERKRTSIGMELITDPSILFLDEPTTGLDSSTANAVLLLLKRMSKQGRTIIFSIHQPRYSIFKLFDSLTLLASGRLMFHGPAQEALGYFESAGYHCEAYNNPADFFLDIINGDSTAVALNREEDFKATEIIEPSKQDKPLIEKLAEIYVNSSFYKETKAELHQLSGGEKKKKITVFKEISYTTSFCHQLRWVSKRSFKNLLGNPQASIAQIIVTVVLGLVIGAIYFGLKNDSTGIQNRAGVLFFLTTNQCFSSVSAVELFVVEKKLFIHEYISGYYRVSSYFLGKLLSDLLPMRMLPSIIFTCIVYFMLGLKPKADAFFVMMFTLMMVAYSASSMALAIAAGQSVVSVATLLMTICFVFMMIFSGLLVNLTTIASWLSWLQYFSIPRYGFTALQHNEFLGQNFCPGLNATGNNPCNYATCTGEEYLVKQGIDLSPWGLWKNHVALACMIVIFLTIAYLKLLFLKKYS
- testDetails: bidirectional transport assay across hCMEC/D3 cell monolayer with or without Ko143
- runConditions: human, pH 7.4, Efflux ratio (ER), hCMEC/D3 without inhibitor Ko143, 80 μM; hCMEC/D3 monolayer

compound	efflux ratio at 2 h, 80 μM
O=C1NC(=O)C(c2ccccc2)(c2ccccc2)N1 [PHT, phenytoin]	1.5

---

- assayedTarget: BCRP (Homo sapiens)
- testDetails: bidirectional transport assay across hCMEC/D3 cell monolayer with or without Ko143
- runConditions: human, pH 7.4

compound	Papp B→A at 2 h, 300 µM [×10⁻⁶ cm/s]
CCCC(CCC)C(=O)O [VPA, valproic acid]	0.31

---

- assayedTarget: BCRP (Homo sapiens)
- testDetails: bidirectional transport assay across hCMEC/D3 cell monolayer with or without Ko143
- runConditions: human, pH 7.4
endpoint: Papp A→B at 2 h, 80 μM (×10⁻⁶ cm/s)

moleculeSmiles	assayedTarget	endpoint	unitName	quantitativeResult
O=C1NC(=O)C(c2ccccc2)(c2ccccc2)N1	BCRP (Homo sapiens)	Papp A→B at 2 h, 80 μM	×10⁻⁶ cm/s	3.09

---

- assayedTarget: BCRP (Homo sapiens, UniProt Q9UNQ0)
- Sequence (Q9UNQ0 1-655): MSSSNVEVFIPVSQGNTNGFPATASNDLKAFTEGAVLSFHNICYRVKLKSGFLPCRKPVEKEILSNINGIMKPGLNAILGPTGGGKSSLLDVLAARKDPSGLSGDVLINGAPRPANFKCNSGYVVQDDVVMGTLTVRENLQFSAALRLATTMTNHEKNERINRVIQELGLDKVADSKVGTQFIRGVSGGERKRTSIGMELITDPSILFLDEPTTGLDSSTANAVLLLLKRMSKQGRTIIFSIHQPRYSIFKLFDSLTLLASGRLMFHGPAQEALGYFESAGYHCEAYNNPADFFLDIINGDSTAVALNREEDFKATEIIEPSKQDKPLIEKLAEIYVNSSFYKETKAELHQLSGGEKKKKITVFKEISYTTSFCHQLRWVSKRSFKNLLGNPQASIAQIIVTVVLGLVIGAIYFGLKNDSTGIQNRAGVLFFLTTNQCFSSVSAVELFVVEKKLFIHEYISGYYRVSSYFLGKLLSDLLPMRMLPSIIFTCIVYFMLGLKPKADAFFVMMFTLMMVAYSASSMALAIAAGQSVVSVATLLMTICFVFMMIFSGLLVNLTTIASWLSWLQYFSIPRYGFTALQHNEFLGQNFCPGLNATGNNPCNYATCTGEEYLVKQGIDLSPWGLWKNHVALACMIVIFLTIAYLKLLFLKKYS
- testDetails: bidirectional transport assay across hCMEC/D3 cell monolayer with or without Ko143
- runConditions: human, pH 7.4

compound	assayedTarget	Papp B→A at 2 h, 21 μM / ×10⁻⁶ cm/s
NC(=O)N1c2ccccc2C=Cc2ccccc21 [CBZ, carbamazepine]	BCRP (Homo sapiens, UniProt Q9UNQ0)	4.27
